Reference source: patent US20230000842A1

TGT: CLK3 kinase (Homo sapiens, UniProt P49761)
Sequence (P49761 whole entry): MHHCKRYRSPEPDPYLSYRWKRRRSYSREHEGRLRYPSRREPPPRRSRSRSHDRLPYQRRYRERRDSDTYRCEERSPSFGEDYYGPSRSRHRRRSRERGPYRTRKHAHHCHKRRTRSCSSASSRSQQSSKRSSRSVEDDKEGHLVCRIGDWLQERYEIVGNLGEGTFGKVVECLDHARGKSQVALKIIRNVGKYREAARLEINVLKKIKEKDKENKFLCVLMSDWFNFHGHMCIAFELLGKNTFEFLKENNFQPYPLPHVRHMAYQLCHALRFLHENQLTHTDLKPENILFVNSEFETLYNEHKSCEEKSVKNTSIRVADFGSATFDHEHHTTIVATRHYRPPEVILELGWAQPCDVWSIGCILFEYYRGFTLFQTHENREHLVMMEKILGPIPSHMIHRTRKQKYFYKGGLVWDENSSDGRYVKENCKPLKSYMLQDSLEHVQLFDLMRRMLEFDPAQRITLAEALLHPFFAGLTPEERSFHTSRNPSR
ASSAY INFO: CLK3 kinase activity assay (Z-lyte FRET);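 further: kinase activity read as coumarin/fluorescein emission ratio by FRET, unphosphorylated peptide as 0% and phosphorylated peptide as 100% control, values from non-linear regression of dose-response curves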
SETTINGS: Z-lyte Ser/Thr 18 peptide, 156 μM ATP, 1 h at room temperature
READOUT KIND: EC50 (nM)

                                   compound  readout_kind   val
0  O=C(Nc1ccc(-c2ccccc2)nc1)c1n[nH]c2ccc(-c3cncc(CN4CCCCC4)c3)cc12 [compound 93]          EC50    71
1  Fc1cccc(-c2ccnc3[nH]c(-c4n[nH]c5ncc(-c6cn[nH]c6)cc45)nc23)c1 [compound 153]          EC50    93
2  Nc1cncc(-c2cnc3[nH]nc(-c4cc5c(-c6ccccc6F)ccnc5[nH]4)c3c2)c1 [compound 322]          EC50    66
3  CC(C)CC(=O)Nc1cncc(-c2ccc3[nH]nc(-c4nc5c(-c6cccs6)cncc5[nH]4)c3c2)c1 [compound 256]          EC50    62
4  c1cncc(-c2ccnc3[nH]c(-c4n[nH]c5cnc(-c6cncc(CN7CCCC7)c6)cc45)cc23)c1 [compound 369]          EC50   102
5  O=C(Nc1cncc(-c2cnc3[nH]nc(-c4nc5c(-c6cccc(F)c6)cncc5[nH]4)c3c2)c1)C1CC1 [compound 126]          EC50  7330
6  CS(=O)(=O)NCc1cc(F)cc(-c2nccc3[nH]c(-c4n[nH]c5ncc(-c6cncc(OCc7ccccc7)c6)cc45)cc23)c1 [compound 537]          EC50   329
7  CC(C)CC(=O)Nc1cncc(-c2ccc3[nH]nc(-c4nc5c(-c6cccc(F)c6)ccnc5[nH]4)c3c2)c1 [compound 124]          EC50   218
8  O=C(Nc1cnccn1)c1n[nH]c2ccc(-c3cncc(CN4CCCCC4)c3)cc12 [compound 95]          EC50    46

* * *

TGT: CLK3 kinase (Homo sapiens)
ASSAY INFO: CLK3 kinase activity assay (Z-lyte FRET)
SETTINGS: Z-lyte Ser/Thr 18 peptide, 156 μM ATP, 1 h at room temperature
Let's look at some compounds and their measured EC50.
READOUT KIND: EC50 (nM)

>>> print(df.to_string())
                     structure_smiles_string   val
 0  O=C(CC1CCNCC1)Nc1cncc(-c2cc3c(-c4nc5c(-c6cccc(F)c6)ccnc5[nH]4)n[nH]c3cn2)c1    28
 1  CN1CCN(c2nccc3[nH]c(-c4n[nH]c5ccc(-c6cncc(CN7CCCC7)c6)cc45)cc23)CC1   885
 2  Cc1n[nH]c2ccc(-c3cncc(OC[C@@H]4Cc5ccccc5CN4)n3)cc12  5730
 3  Cn1cc(-c2cc3c(C(=O)Nc4ccc(OCCN5CCCC5)cc4)n[nH]c3cc2F)cn1   101
 4  Cc1ncc(-c2ccc3[nH]nc(-c4nc5c(-c6cc(F)cc(NCCN(C)C)c6)ccnc5[nH]4)c3n2)n1C    44
 5  CC(C)C(=O)Nc1cncc(-c2ccc3[nH]nc(-c4cc5c(N6CCN(C)CC6)nccc5[nH]4)c3c2)c1   569
 6  CN(C)C1CCN(c2cc(C(=O)Nc3cc4cc(-c5cnn(C)c5)ccc4cn3)ccn2)CC1     9
 7  CN1CCN(c2cncc3[nH]c(-c4n[nH]c5ccc(-c6cncc(N7CCOCC7)c6)cc45)nc23)CC1    32
 8  CO[C@H]1CC[C@H](C(=O)Nc2cc3cc(-c4cnn(C)c4CN4CCCCC4)ccc3cn2)CC1   164
 9  c1cc(-c2cncc3[nH]c(-c4n[nH]c5ccc(-c6cncc(CN7CCCCC7)c6)nc45)cc23)ccn1   306
10  O=C(Nc1cncc(-c2ccc3[nH]nc(-c4nc5c(N6CCCCC6)cncc5[nH]4)c3c2)c1)C1CCC1    54
11  CC(C)Nc1cncc(-c2ccc3[nH]nc(-c4nc5c(-c6ccoc6)ccnc5[nH]4)c3n2)c1   113
12  CC(C)(C)C(=O)Nc1cncc(-c2ccc3[nH]nc(-c4nc5c(-c6ccc(F)cc6)cncc5[nH]4)c3c2)c1   105
13  CCC(=O)Nc1cncc(-c2cnc3[nH]nc(-c4nc5c(-c6ccsc6)cccc5[nH]4)c3c2)c1    62
14  CS(=O)(=O)NCc1cc(F)cc(-c2cncc3[nH]c(-c4n[nH]c5ccc(-c6cncc(NC(=O)C7CC7)c6)nc45)cc23)c1   140
